Items are presented alongside their recorded IC50.
target: PDE2 (Homo sapiens); construct: PDE2 was isolated from human platelets; test: IC50 on purified PDE2 isozyme (cGMP-activated); details: 1 µM cAMP substrate, cGMP modulator; mean±s.e.m. of three experiments
Sequence (O00408 whole entry): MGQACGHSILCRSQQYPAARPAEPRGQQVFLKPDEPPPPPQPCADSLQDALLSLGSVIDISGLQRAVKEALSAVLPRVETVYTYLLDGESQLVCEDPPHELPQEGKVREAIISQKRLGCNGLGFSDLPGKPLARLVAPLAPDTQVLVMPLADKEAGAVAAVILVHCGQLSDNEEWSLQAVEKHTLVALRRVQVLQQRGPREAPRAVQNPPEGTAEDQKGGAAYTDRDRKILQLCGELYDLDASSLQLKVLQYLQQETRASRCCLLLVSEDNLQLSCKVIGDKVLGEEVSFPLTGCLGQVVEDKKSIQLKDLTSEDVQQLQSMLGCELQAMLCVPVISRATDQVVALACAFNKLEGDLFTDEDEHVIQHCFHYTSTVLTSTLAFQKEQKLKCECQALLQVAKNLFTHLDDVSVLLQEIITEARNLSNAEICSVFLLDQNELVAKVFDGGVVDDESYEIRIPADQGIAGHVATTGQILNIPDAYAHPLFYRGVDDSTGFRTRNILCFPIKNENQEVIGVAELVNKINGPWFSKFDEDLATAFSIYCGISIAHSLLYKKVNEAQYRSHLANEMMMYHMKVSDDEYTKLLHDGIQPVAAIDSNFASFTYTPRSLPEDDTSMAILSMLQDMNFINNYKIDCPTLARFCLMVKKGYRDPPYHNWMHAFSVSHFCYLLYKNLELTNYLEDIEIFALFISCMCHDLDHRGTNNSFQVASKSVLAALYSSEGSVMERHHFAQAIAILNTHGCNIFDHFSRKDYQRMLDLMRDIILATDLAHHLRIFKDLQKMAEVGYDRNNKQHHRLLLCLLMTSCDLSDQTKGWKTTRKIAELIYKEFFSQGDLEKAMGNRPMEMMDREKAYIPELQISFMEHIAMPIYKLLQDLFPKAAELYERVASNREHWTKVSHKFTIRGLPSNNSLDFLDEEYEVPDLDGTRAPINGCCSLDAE

compound="CC(=O)CCCCn1c(=O)c2c(ncn2C)n(C)c1=O [Pentoxifylline, pentoxifylline]" value_measured="119 µM"

Continue with the next compound.
Result for CNc1nc(C(F)(F)F)nc2c1ncn2Cc1ccccc1F [NCS 613] , tested on PDE2 (Homo sapiens), IC50: 24 µM

---

target: human recombinant PDE4B (Homo sapiens, UniProt Q07343); construct: gift of Ted J. Torphy (SmithKline Beecham Pharmaceuticals, King of Prussia, PA, USA); assay: IC50 on human recombinant PDE4B; format: biochemical
Sequence (Q07343 whole entry): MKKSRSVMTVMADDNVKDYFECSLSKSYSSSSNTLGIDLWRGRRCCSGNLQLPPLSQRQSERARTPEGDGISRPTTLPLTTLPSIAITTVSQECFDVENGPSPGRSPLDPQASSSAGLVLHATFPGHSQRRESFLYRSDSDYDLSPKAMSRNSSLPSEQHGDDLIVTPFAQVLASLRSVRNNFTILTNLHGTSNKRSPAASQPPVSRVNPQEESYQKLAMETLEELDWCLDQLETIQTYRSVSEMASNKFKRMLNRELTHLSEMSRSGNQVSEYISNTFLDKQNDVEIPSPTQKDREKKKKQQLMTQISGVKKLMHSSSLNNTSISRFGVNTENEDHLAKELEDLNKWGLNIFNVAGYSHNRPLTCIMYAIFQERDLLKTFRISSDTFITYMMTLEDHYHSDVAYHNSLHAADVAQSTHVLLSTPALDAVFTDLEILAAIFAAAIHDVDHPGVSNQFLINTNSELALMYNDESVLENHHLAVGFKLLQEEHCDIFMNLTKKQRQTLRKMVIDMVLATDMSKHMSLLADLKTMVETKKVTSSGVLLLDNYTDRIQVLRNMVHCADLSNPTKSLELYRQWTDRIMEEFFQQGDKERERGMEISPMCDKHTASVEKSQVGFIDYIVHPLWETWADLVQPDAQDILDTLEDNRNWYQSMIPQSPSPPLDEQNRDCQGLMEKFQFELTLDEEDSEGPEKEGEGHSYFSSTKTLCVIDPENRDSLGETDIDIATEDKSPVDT
assay-readout: IC50 (nM)
The figure you give is taken to be in nM; do not add the unit.

Result for CNc1nc(C(F)(F)F)nc2c1ncn2Cc1ccccc1F [NCS 613] , tested on human recombinant PDE4B (Homo sapiens, UniProt Q07343), IC50: 48

---

biological target: PDE5 (Bos taurus); construct: isolated by anion exchange chromatography from bovine aortic smooth muscle cytosolic fraction; assay: IC50 on purified PDE5 isozyme; settings: 1 µM cGMP substrate; mean±s.e.m. of three experiments
assay-readout: pIC50
// pIC50: -log10(molar conc.)

compound="CC(=O)CCCCn1c(=O)c2c(ncn2C)n(C)c1=O [Pentoxifylline, pentoxifylline]" value_measured=4.13

Continue with the next compound.
So, CNc1nc(C(F)(F)F)nc2c1ncn2Cc1ccccc1F [NCS 613] ? Its pIC50 was 5.33

---

target: human recombinant PDE4C (Homo sapiens, UniProt Q08493); construct: gift of Ted J. Torphy (SmithKline Beecham Pharmaceuticals, King of Prussia, PA, USA); assay: IC50 on human recombinant PDE4C; conditions: 1 µM cAMP; with confidence interval
Sequence (Q08493 whole entry): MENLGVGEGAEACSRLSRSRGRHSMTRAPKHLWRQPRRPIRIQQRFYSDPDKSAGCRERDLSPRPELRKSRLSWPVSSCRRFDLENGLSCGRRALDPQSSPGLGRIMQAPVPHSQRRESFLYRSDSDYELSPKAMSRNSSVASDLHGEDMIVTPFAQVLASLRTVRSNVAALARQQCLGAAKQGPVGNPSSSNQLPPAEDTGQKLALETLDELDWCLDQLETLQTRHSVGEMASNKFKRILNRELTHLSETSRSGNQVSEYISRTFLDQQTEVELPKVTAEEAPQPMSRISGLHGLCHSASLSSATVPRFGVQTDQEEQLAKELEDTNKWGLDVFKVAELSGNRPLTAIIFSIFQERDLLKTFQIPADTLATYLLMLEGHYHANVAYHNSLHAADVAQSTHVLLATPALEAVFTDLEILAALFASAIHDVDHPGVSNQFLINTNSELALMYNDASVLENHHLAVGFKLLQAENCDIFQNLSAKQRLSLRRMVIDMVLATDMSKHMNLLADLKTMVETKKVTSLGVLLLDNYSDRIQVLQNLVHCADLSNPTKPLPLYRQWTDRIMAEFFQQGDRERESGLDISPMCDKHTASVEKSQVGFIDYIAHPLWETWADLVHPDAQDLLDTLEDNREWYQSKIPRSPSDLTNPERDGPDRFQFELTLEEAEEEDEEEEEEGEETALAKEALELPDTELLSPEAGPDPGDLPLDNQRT
assay-readout: pIC50
// pIC50: -log10(molar conc.)

So, CNc1nc(C(F)(F)F)nc2c1ncn2Cc1ccccc1F ? Its pIC50 was 8.85

---

target: High Affinity Rolipram Binding Site (HARBS); experiment: 3H-rolipram binding assay on rat brain membranes; conditions: rat brain membrane, 4 nM 3H-rolipram; read-out: Ki toward 3H-rolipram binding (HARBS)
assay-readout: pKi
// pKi: -log10(molar conc.)

So, CNc1nc(C(F)(F)F)nc2c1ncn2Cc1ccccc1F ? Its pKi was 6.83

---

molecular target: PDE3 (Bos taurus)
Sequence (A0A3Q1M1E8 1-1126): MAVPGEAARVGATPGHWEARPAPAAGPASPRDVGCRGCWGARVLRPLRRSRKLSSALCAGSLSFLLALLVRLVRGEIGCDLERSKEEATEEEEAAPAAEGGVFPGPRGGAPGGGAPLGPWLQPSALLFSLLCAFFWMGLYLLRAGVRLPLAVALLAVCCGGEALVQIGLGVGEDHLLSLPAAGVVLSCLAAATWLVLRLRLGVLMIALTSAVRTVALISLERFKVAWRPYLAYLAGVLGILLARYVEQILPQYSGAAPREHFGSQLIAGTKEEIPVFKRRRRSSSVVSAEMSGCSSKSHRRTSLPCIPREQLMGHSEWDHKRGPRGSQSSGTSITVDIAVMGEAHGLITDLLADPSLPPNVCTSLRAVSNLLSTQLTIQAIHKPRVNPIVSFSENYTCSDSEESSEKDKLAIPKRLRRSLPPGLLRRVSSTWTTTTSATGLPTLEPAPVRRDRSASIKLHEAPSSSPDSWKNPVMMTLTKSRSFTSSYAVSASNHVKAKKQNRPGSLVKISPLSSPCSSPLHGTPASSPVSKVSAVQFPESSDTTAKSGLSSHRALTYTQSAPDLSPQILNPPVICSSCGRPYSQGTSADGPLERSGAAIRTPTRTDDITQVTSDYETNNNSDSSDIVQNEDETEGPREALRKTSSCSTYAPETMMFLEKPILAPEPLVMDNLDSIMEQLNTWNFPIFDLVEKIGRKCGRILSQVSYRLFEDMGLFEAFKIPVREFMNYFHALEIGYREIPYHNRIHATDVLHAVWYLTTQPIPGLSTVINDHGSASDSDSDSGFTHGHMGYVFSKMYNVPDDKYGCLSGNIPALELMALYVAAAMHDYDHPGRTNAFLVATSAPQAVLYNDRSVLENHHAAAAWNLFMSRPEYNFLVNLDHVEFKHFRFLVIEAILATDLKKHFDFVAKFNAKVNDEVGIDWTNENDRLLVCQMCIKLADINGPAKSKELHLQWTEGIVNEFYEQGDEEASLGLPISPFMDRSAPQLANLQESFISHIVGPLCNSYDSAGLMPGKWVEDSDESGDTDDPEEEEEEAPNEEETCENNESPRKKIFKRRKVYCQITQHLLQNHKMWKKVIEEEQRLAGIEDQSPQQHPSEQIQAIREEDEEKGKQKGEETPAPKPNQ
pIC50: −log10 of the molar value.
assay-readout: pIC50

Result for CNc1nc(C(F)(F)F)nc2c1ncn2Cc1ccccc1F , tested on PDE3 (Bos taurus), pIC50: < 3.52

---

molecular target: human recombinant PDE4D (Homo sapiens); construct: gift of Ted J. Torphy (SmithKline Beecham Pharmaceuticals, King of Prussia, PA, USA); assay: IC50 on human recombinant PDE4D; assay type: biochemical
Sequence (Q08499 whole entry): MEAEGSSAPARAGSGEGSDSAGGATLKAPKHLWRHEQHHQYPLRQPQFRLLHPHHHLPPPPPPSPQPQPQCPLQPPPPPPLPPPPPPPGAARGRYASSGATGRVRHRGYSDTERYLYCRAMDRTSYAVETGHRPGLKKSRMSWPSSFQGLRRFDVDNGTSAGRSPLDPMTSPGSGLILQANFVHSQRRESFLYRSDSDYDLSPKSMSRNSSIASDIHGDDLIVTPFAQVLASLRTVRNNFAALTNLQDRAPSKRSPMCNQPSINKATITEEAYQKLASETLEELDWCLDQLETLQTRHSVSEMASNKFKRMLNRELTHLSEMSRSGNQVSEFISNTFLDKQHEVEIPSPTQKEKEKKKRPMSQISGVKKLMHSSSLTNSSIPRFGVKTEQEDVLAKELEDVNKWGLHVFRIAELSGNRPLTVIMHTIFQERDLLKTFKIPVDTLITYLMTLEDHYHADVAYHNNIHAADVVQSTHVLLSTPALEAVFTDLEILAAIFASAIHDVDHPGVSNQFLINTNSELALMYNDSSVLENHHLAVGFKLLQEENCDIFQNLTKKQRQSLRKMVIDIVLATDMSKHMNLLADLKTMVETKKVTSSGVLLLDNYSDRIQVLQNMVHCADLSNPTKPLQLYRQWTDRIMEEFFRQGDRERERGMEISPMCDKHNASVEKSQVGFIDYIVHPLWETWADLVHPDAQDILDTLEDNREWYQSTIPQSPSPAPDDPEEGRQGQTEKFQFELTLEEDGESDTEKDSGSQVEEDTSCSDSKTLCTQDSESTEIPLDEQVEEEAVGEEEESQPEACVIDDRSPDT
assay-readout: IC50

So, CNc1nc(C(F)(F)F)nc2c1ncn2Cc1ccccc1F [NCS 613] ? Its IC50 was 14 nM
